Target: ATP-dependent translocase ABCB1 (Homo sapiens, UniProt P08183)
Sequence (P08183 whole entry): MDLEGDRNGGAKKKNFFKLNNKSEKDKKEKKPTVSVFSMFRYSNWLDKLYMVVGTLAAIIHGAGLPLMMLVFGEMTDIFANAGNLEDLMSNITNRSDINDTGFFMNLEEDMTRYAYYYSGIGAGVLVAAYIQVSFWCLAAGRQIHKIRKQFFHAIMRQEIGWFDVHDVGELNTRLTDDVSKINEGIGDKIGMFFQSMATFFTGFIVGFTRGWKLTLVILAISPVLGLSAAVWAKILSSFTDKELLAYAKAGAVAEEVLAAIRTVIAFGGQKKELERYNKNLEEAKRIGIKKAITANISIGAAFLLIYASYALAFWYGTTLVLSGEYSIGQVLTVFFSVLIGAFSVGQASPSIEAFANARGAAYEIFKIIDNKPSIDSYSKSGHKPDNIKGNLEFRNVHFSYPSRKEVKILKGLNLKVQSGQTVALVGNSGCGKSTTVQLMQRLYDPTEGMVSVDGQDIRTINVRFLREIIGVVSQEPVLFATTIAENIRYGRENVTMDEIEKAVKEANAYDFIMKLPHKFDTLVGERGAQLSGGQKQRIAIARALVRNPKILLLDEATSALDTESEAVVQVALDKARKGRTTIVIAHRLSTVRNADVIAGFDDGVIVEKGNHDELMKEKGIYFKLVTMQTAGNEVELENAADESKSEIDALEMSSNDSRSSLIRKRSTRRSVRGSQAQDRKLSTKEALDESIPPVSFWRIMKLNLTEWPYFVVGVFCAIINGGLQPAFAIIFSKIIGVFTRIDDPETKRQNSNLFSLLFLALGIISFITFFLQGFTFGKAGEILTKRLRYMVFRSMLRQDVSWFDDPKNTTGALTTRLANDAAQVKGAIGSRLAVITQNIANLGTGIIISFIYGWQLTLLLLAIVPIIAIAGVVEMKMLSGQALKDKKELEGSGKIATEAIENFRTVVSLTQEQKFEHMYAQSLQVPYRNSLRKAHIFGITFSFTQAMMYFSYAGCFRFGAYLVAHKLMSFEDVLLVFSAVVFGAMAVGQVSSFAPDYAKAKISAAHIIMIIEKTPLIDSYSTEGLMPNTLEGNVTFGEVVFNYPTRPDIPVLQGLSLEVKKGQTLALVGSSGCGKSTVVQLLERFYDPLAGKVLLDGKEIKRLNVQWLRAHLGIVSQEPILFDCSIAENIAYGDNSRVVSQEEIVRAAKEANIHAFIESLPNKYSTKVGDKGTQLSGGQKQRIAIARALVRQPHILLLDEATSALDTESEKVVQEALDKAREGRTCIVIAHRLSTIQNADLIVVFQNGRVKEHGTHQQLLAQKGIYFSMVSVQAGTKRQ
Test: Inhibition of full length human ABCB1 expressed in Flp-In-293 cells at 2.5 uM incubated for 30 mins by calcein-AM uptake assay relative to control
Assay type: cell-based
Settings: 0.5 h
molecules and their reported fold change (FC)
MEASUREMENT LABEL: fold change (FC)

- SMILES DATA: "COc1ccc(-c2coc3cc4occ(-c5ccc(OC)c(OC)c5)c(=O)c4c(O)c3c2=O)cc1OC"
  TESTED ON: "ATP-dependent translocase ABCB1 (Homo sapiens, UniProt P08183)"
  READOUT NUMBER: 0.81
- SMILES DATA: "O=c1c(-c2ccccc2F)coc2c1c(O)cc1occ(-c3ccccc3F)c(=O)c12"
  TESTED ON: "ATP-dependent translocase ABCB1 (Homo sapiens, UniProt P08183)"
  READOUT NUMBER: 0.76
- SMILES DATA: "O=c1c(-c2ccccc2[N+](=O)[O-])coc2c1c(O)cc1occ(-c3ccccc3[N+](=O)[O-])c(=O)c12"
  TESTED ON: "ATP-dependent translocase ABCB1 (Homo sapiens, UniProt P08183)"
  READOUT NUMBER: 0.98
- SMILES DATA: "O=c1c(-c2ccccc2F)coc2cc3occ(-c4ccccc4F)c(=O)c3c(O)c12"
  TESTED ON: "ATP-dependent translocase ABCB1 (Homo sapiens, UniProt P08183)"
  READOUT NUMBER: 0.92
- SMILES DATA: "O=c1c(-c2ccc(F)cc2)coc2c1c(O)cc1occ(-c3ccc(F)cc3)c(=O)c12"
  TESTED ON: "ATP-dependent translocase ABCB1 (Homo sapiens, UniProt P08183)"
  READOUT NUMBER: 0.92

----------
Biological target: ATP-dependent translocase ABCB1 (Homo sapiens, UniProt P08183)
Assay: Inhibition of full length human ABCB1 expressed in Flp-In-293 cells at 5 uM incubated for 30 mins by calcein-AM uptake assay relative to control
Type: cell-based
Settings: 0.5 h
molecules and their reported fold change (FC)
MEASUREMENT LABEL: fold change (FC)

- SMILES DATA: "O=c1c(-c2ccc(Cl)c(Cl)c2)coc2c1c(O)cc1occ(-c3ccc(Cl)c(Cl)c3)c(=O)c12"
  MEASUREMENT LABEL: "fold change (FC)"
  READOUT NUMBER: 0.81
- SMILES DATA: "O=c1c(-c2c(F)cccc2Cl)coc2c1c(O)cc1occ(-c3c(F)cccc3Cl)c(=O)c12"
  MEASUREMENT LABEL: "fold change (FC)"
  READOUT NUMBER: 0.64
- SMILES DATA: "O=c1c(-c2ccc([N+](=O)[O-])cc2)coc2c1c(O)cc1occ(-c3ccc([N+](=O)[O-])cc3)c(=O)c12"
  MEASUREMENT LABEL: "fold change (FC)"
  READOUT NUMBER: 0.75
- SMILES DATA: "O=c1c(-c2ccccc2[N+](=O)[O-])coc2cc3occ(-c4ccccc4[N+](=O)[O-])c(=O)c3c(O)c12"
  MEASUREMENT LABEL: "fold change (FC)"
  READOUT NUMBER: 0.83
- SMILES DATA: "O=c1c(-c2cccc(O)c2)coc2cc3occ(-c4cccc(O)c4)c(=O)c3c(O)c12"
  MEASUREMENT LABEL: "fold change (FC)"
  READOUT NUMBER: 1.19
- SMILES DATA: "COc1ccccc1-c1coc2c(c(O)cc3occ(-c4ccccc4OC)c(=O)c32)c1=O"
  MEASUREMENT LABEL: "fold change (FC)"
  READOUT NUMBER: 1.56
- SMILES DATA: "COc1ccc(-c2coc3cc4occ(-c5ccc(OC)c(OC)c5)c(=O)c4c(O)c3c2=O)cc1OC"
  MEASUREMENT LABEL: "fold change (FC)"
  READOUT NUMBER: 0.86
- SMILES DATA: "O=c1c(-c2ccccc2F)coc2cc3occ(-c4ccccc4F)c(=O)c3c(O)c12"
  MEASUREMENT LABEL: "fold change (FC)"
  READOUT NUMBER: 0.89
- SMILES DATA: "O=c1c(-c2cccc3ccccc23)coc2c1c(O)cc1occ(-c3cccc4ccccc34)c(=O)c12"
  MEASUREMENT LABEL: "fold change (FC)"
  READOUT NUMBER: 0.85
- SMILES DATA: "Cc1cccc(-c2coc3c(c(O)cc4occ(-c5cccc(C)c5)c(=O)c43)c2=O)c1"
  MEASUREMENT LABEL: "fold change (FC)"
  READOUT NUMBER: 2.05
- SMILES DATA: "O=c1c(-c2ccccc2)coc2cc3occ(-c4ccccc4)c(=O)c3c(O)c12"
  MEASUREMENT LABEL: "fold change (FC)"
  READOUT NUMBER: 0.9
- SMILES DATA: "Cc1ccc(-c2coc3cc4occ(-c5ccc(C)cc5)c(=O)c4c(O)c3c2=O)cc1"
  MEASUREMENT LABEL: "fold change (FC)"
  READOUT NUMBER: 1.81
- SMILES DATA: "O=c1c(-c2ccc(C(F)(F)F)cc2)coc2c1c(O)cc1occ(-c3ccc(C(F)(F)F)cc3)c(=O)c12"
  MEASUREMENT LABEL: "fold change (FC)"
  READOUT NUMBER: 0.9
- SMILES DATA: "Cc1cccc(-c2coc3cc4occ(-c5cccc(C)c5)c(=O)c4c(O)c3c2=O)c1"
  MEASUREMENT LABEL: "fold change (FC)"
  READOUT NUMBER: 0.93
- SMILES DATA: "O=c1c(-c2ccc(Cl)cc2)coc2c1c(O)cc1occ(-c3ccc(Cl)cc3)c(=O)c12"
  MEASUREMENT LABEL: "fold change (FC)"
  READOUT NUMBER: 0.82
- SMILES DATA: "O=c1c(-c2ccccc2C(F)(F)F)coc2cc3occ(-c4ccccc4C(F)(F)F)c(=O)c3c(O)c12"
  MEASUREMENT LABEL: "fold change (FC)"
  READOUT NUMBER: 1.36
- SMILES DATA: "COc1cccc(-c2coc3cc4occ(-c5cccc(OC)c5)c(=O)c4c(O)c3c2=O)c1"
  MEASUREMENT LABEL: "fold change (FC)"
  READOUT NUMBER: 0.85
